The reported measurements were obtained from the supplement of paper PMC3545927.

Biological target: furin, P09958;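 note: purified furin at 1:10 enzyme:substrate in 50 mM HEPES pH 7.5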
Sequence (P09958 whole entry): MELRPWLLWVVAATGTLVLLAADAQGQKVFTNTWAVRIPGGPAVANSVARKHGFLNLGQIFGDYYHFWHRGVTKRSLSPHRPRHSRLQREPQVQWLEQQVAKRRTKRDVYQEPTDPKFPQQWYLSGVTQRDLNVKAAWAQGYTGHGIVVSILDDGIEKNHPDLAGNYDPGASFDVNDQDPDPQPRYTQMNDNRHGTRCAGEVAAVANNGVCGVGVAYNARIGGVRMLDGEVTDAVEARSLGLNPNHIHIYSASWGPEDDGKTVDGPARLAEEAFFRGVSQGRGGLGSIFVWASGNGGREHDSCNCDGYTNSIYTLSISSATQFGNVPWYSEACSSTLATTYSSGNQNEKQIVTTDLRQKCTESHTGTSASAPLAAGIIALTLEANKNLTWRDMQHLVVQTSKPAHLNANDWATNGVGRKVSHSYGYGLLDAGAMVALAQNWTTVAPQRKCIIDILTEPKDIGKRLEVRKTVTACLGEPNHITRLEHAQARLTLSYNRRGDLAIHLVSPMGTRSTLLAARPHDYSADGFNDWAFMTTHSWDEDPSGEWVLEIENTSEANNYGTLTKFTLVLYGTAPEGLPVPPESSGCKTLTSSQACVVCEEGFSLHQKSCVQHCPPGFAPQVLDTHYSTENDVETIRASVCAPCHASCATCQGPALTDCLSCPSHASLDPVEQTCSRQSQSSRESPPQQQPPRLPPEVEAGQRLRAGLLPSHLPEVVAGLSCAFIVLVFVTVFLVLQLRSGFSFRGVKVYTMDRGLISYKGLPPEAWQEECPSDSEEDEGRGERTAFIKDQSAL
Experiment: furin cleavage Z-score vs untreated control; higher = more cleavage, active = 3.5 or more, inactive = 1 or less, 8 variable residues between constant flanks
Conditions: 30 min
The other results are listed elsewhere or left out. How many sequences the whole screen found active is unknown.
Please enter Met where furin cleavage Z-score is greater than or equal to 1, and Not met where it is lower.

                 sequence_chain  qualitative_label
0  CAVRRRAADQAGNASASA [FS-3143]                Met

## Task Determine whether this sequence has furin cleavage Z-score no lower than 1: CAEISVPAEIAGNASASA [HC1294]
## Result Not met

## Task In plain terms: is recorded furin cleavage Z-score at least 1 for CAASRCWVAMAGNASASA [HC278] ?
## Result Met

## Task Please indicate if the recorded furin cleavage Z-score for CAMEECSQALAGNASASA [HC1743] meets or exceeds 1.
## Result Not met

## Task // inclusive: furin cleavage Z-score at least 1? input: CAWVAAQLAAAGNASASA [HC1068]
## Result Not met

## Task Reported furin cleavage Z-score at or above 1? CAGEGAVQWMAGNASASA [HC1115]
## Result Not met

## Task Given CASLHSYSPGAGNASASA [HC1607] , state whether its furin cleavage Z-score is at least 1.
## Result Not met
